Quick reference: pEC50 of the listed items.
System: dengue virus type 2
Test: Antiviral activity against DENV2 infected in human Huh7 cells assessed as reduction in virus titer in cell supernatant by measuring inhibition of plaque formation using VeroE6 cells preincubated with viral infected Huh7 cells for 48 hrs and measured following infection of VeroE6 cells with supernatants for 7 days by plaque assay based crystal violet staining analysis
Type: functional, organism-based, Huh-7
Conditions: Huh-7
pEC50: −log10 of the molar value.
OBSERVABLE: pEC50

[[record]]
molecular_string = "NC(=O)c1cccc(NC(=O)[C@@H](NC(=O)c2ccc(-c3ccc(Cl)cc3)cc2)c2ccc(OCc3ccccc3)cc2)c1"
recorded_number = 5.80

[[record]]
molecular_string = "NC(=O)c1cccc(NC(=O)[C@@H](NC(=O)c2ccc(Oc3ccc(C(F)(F)F)cc3)cc2)c2ccc(OCc3ccccc3)cc2)c1"
recorded_number = 6.62

[[record]]
molecular_string = "N#Cc1ccc(Oc2ccc(C(=O)N[C@H](C(=O)Nc3cccc(C(N)=O)c3)c3ccc(OCc4ccccc4)cc3)cc2)cc1"
recorded_number = 6.18

[[record]]
molecular_string = "NC(=O)c1cccc(NC(=O)[C@@H](NC(=O)c2ccc(N3CCOCC3)cc2)c2ccc(OCc3ccccc3)cc2)c1"
recorded_number = 6.07

[[record]]
molecular_string = "NC(=O)c1cccc(NC(=O)[C@@H](NC(=O)c2ccc(Oc3ccc4c(c3)OCO4)cc2)c2ccc(OCc3ccccc3)cc2)c1"
recorded_number = 5.66

[[record]]
molecular_string = "NC(=O)c1cccc(NC(=O)[C@@H](NC(=O)c2ccc(C(=O)c3ccccc3)cc2)c2ccc(OCc3ccccc3)cc2)c1"
recorded_number = 5.96

[[record]]
molecular_string = "NC(=O)c1cccc(NC(=O)[C@@H](NC(=O)c2ccc(Oc3ccccc3)cc2)c2ccc(OCc3ccccc3)cc2)c1"
recorded_number = 6.18


====

Quick reference: metabolised at 2 h, 0.1 mg/ml of the listed items.
Assay: Stability of the compound assessed as bovine pancreas alphachymotrypsin-mediated parent compound depletion at 0.1 mg/ml incubated for 120 mins by HPLC analysis
Assay type: ADME, Bos taurus
Conditions: cattle, bovine pancreas alpha-chymotrypsin, read-out: Drug degradation
OBSERVABLE: metabolised at 2 h, 0.1 mg/ml (%)

[[record]]
molecular_string = "CCCCCC(=O)N[C@H](C(=O)NCc1ccc(NC(=N)N)cc1)c1ccc(OCc2ccccc2)cc1"
observable = "metabolised at 2 h, 0.1 mg/ml"
recorded_number = 40

[[record]]
molecular_string = "NC(=O)c1cccc(NC(=O)[C@@H](NC(=O)c2ccc(N3CCOCC3)cc2)c2ccc(OCc3ccccc3)cc2)c1"
observable = "metabolised at 2 h, 0.1 mg/ml"
recorded_number = 40


====

Test: Passive membrane permeability of the compound in phosphate buffered saline assessed as concentration of the compound in acceptor plate at 200 uM incubated for 5 hrs by PAMPA assay based HPLC analysis
Assay type: ADME
OBSERVABLE: Activity (µM)

[[record]]
molecular_string = "NC(=O)c1cccc(NC(=O)[C@@H](NC(=O)c2ccc(C(=O)c3ccccc3)cc2)c2ccc(OCc3ccccc3)cc2)c1"
result_units = "µM"
recorded_number = 8.6

[[record]]
molecular_string = "NC(=O)c1ccc(CNC(=O)[C@@H](NC(=O)c2ccc(Oc3ccccc3)cc2)c2ccc(OCc3ccccc3)cc2)cc1"
result_units = "µM"
recorded_number = 3

[[record]]
molecular_string = "O=C1NC(=O)C(c2ccccc2)(c2ccccc2)N1"
result_units = "µM"
recorded_number = 25

[[record]]
molecular_string = "N#Cc1ccc(Oc2ccc(C(=O)N[C@H](C(=O)Nc3cccc(C(N)=O)c3)c3ccc(OCc4ccccc4)cc3)cc2)cc1"
result_units = "µM"
recorded_number = 4.5


====

Quick reference: remaining at 2 h, 0.1 mg/ml of the listed items.
Test: Stability of the compound assessed as bovine pancreas alphachymotrypsin-mediated parent compound depletion by measuring parent compound remaining at 0.1 mg/ml incubated for 120 mins by HPLC analysis
Format: ADME, Bos taurus
Settings: cattle, bovine pancreas alpha-chymotrypsin, read-out: Stabilty
OBSERVABLE: remaining at 2 h, 0.1 mg/ml (%)

[[record]]
molecular_string = "NC(=O)c1cccc(NC(=O)[C@@H](NC(=O)c2ccc(-c3ccc(Cl)cc3)cc2)c2ccc(OCc3ccccc3)cc2)c1"
recorded_number = 70

[[record]]
molecular_string = "NC(=O)c1cccc(NC(=O)[C@@H](NC(=O)c2ccc(C(=O)c3ccccc3)cc2)c2ccc(OCc3ccccc3)cc2)c1"
recorded_number = 70

[[record]]
molecular_string = "NC(=O)c1cccc(NC(=O)[C@@H](NC(=O)c2ccc(Oc3ccc(C(F)(F)F)cc3)cc2)c2ccc(OCc3ccccc3)cc2)c1"
recorded_number = 70

[[record]]
molecular_string = "NC(=O)c1cccc(NC(=O)[C@@H](NC(=O)c2ccc(Oc3ccccc3)cc2)c2ccc(OCc3ccccc3)cc2)c1"
recorded_number = 70


====

Biological target: Genome polyprotein (dengue virus type 2, UniProt P29990)
Experiment: Inhibition of NS2B-NS3 protease in DENV2proHeLa system assessed as inhibition of luciferase signal incubated for 24 hrs by luciferase reporter gene assay
pEC50: −log10 of the molar value.
Classification field: enter true (1) for pEC50 values not below 5, false (0) for values below it.

[[record]]
molecular_string = "NC(=O)c1cccc(NC(=O)[C@@H](NC(=O)c2ccc(N3CCOCC3)cc2)c2ccc(OCc3ccccc3)cc2)c1"
group_label = "true (1)"

[[record]]
molecular_string = "NC(=O)c1cccc(NC(=O)[C@@H](NC(=O)c2ccc(Oc3ccccc3)cc2)c2ccc(Oc3ccccc3)cc2)c1"
group_label = "true (1)"

[[record]]
molecular_string = "COc1cccc(COc2ccc([C@H](NC(=O)c3ccc(C(=O)c4ccccc4)cc3)C(=O)Nc3cccc(C(N)=O)c3)cc2)c1"
group_label = "true (1)"

[[record]]
molecular_string = "COc1cccc(COc2ccc([C@H](NC(=O)c3ccc(Oc4ccccc4)cc3)C(=O)Nc3cccc(C(N)=O)c3)cc2)c1"
group_label = "true (1)"

[[record]]
molecular_string = "NC(=O)c1cccc(NC(=O)[C@@H](NC(=O)c2ccc(Oc3cccc4c3C(=O)CC4)cc2)c2ccc(OCc3ccccc3)cc2)c1"
group_label = "true (1)"

[[record]]
molecular_string = "CCCCC(=O)N[C@H](C(=O)NCc1ccc(C(N)=O)cc1)c1ccc(OCc2ccccc2)cc1"
group_label = "false (0)"


====

Assay: Cytotoxicity against human HeLa cells assessed as reduction in cell viability incubated for 24 hrs by CellTiter-Blue assay
Format: cell-based
Quick reference: CC50 at 24 h of the listed items.
OBSERVABLE: CC50 at 24 h

[[record]]
molecular_string = "NC(=O)c1ccc(CNC(=O)[C@@H](NC(=O)c2ccc(OCc3ccccc3)cc2)c2ccc(OCc3ccccc3)cc2)cc1"
result = "> 25 µM"

[[record]]
molecular_string = "NC(=O)c1cccc(NC(=O)[C@@H](NC(=O)c2ccc(Oc3cccc(Cl)c3)cc2)c2ccc(OCc3ccccc3)cc2)c1"
result = "> 100 µM"

[[record]]
molecular_string = "NC(=O)c1cccc(NC(=O)[C@@H](NC(=O)c2ccc(Oc3ccc4c(c3)OCCO4)cc2)c2ccc(OCc3ccccc3)cc2)c1"
result = "> 100 µM"

[[record]]
molecular_string = "NC(=O)c1cccc(NC(=O)[C@@H](NC(=O)c2cccc(Oc3ccccc3)c2)c2ccc(OCc3ccccc3)cc2)c1"
result = "> 100 µM"

[[record]]
molecular_string = "NC(=O)c1ccc(CNC(=O)[C@@H](NC(=O)CCc2ccccc2)c2ccc(OCc3ccccc3)cc2)cc1"
result = "> 50 µM"

[[record]]
molecular_string = "COc1cccc(COc2ccc([C@H](NC(=O)c3ccc(C(=O)c4ccccc4)cc3)C(=O)Nc3cccc(C(N)=O)c3)cc2)c1"
result = "> 100 µM"

[[record]]
molecular_string = "CCCCCCCC(=O)N[C@H](C(=O)Nc1cccc(C(N)=O)c1)c1ccc(OCc2ccccc2)cc1"
result = "> 12.5 µM"

[[record]]
molecular_string = "Cc1ccc(C)c(OCCCC(C)(C)C(=O)N[C@H](C(=O)Nc2cccc(C(N)=O)c2)c2ccc(OCc3ccccc3)cc2)c1"
result = "> 25 µM"

[[record]]
molecular_string = "CCCCCC(=O)N[C@H](C(=O)NNc1ccc(C(N)=O)cc1)c1ccc(OCc2ccccc2)cc1"
result = "> 25 µM"

[[record]]
molecular_string = "NC(=O)c1ccc(CNC(=O)[C@@H](NC(=O)Cc2ccc(-c3ccccc3)cc2)c2ccc(OCc3ccccc3)cc2)cc1"
result = "> 50 µM"

[[record]]
molecular_string = "CCCCCC(=O)N[C@H](C(=O)Nc1ccc(CO)cc1)c1ccc(OCc2ccccc2)cc1"
result = "> 50 µM"

[[record]]
molecular_string = "NC(=O)c1cccc(NC(=O)[C@@H](NC(=O)c2ccc(Oc3ccccc3)cc2)c2ccc(OCc3ccccc3)cc2)c1"
result = "> 100 µM"

[[record]]
molecular_string = "NC(=O)c1cccc(NC(=O)[C@@H](NC(=O)c2ccc3c(c2)OCCO3)c2ccc(OCc3ccccc3)cc2)c1"
result = "> 100 µM"

[[record]]
molecular_string = "NC(=O)c1ccc(CNC(=O)[C@@H](N)c2ccc(OCc3ccccc3)cc2)cc1"
result = "> 50 µM"

[[record]]
molecular_string = "NC(=O)c1cccc(NC(=O)[C@@H](NC(=O)c2ccc(N3CCOCC3)cc2)c2ccc(OCc3ccccc3)cc2)c1"
result = "> 100 µM"

[[record]]
molecular_string = "CC(C)CCOc1ccc(C(=O)N[C@H](C(=O)Nc2cccc(C(N)=O)c2)c2ccc(OCc3ccccc3)cc2)cc1"
result = "> 50 µM"

